Target: human full-length VWF (human, UniProt P04275 764-2813)
Assay: SPR, Biacore T200, antibody captured on Protein A, full-length VWF as analyte, single-cycle kinetics
Kindly state koff for each of the entries shown.
One number for each entry, in s⁻¹.

Use these answered entries as a reference point.
BINDER	MEASUREMENT UNIT	ASSAY VALUE
1-D5_H1_L0 (antibody, human IgG1, kappa, V domains shown, humanised, human IgG1 kappa) VH: QVQLVESGGGVVQPGRSLRLSCAASGFSLNNYIMGWVRQAPGKGLEWVAIISTGGSTYYASWAKGRFTISRDNSKNTLYLQMNSLRAEDTAVYYCARGGSSAGAGFNIWGQGTLVTVSS VL: DIQMTQSPSSLSASVGDRVTITCQASQSINSGLAWYQQKPGKAPKLLIYKASTLASGVPSRFSGSGSGTDFTLTISSLQPEDFATYYCQSYHYISANGATFGGGTKVEIKT	s⁻¹	1.25e-07
1-D5_H2_L0 (antibody, human IgG1, kappa, V domains shown, humanised, human IgG1 kappa) VH: QQQLVESGGGVVQPGRSLRLSCAASGFSLNNYIMGWVRQAPGKGLEYIGIISTGGSTYYASWAKGRFTISRDSNTMYLQMNSLRAEDTATYFCARGGSSAGAGFNIWGQGTLVTVSS VL: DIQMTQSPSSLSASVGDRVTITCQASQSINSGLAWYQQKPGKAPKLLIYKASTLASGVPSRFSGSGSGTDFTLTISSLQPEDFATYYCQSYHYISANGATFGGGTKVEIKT	s⁻¹	1.06e-06

--- query ---
Problem: What does the record list as koff for 4-H3_H3_VL-par (antibody, human IgG1, kappa, V domains shown, also called 4-H3_H3 (hIgG1)) VH: QVQLVESGGGVVQPGRSLRLSCAASGIDLTSNAMNWVRQAPGKGLEWIGGIYGHDTSYYAAWAKGRFTISRDNSKNTVYLQMNSLRAEDTAVYYCARGFIYFDIWGQGTLVTVSS VL: AYDMTQTPPSLSASVGETVRIRCLASEDIASGISWYQQKPGKPPTLLIYGASNLESGVPPRFSGSGSGTDYTLTIGGVQAEDAATYYCLGGYSFSSNGLTFGAGTKVEIKT ?
Result: 1.59e-06
